Target: ScLsb3
Experiment: SPOT peptide array binding signal intensity (averaged, normalized) (arbitrary units (background-subtracted, floor 0; scale differs between SH3 domains)); higher = stronger binding of the SH3 domain to the peptide
PARAMETER: SPOT peptide array binding signal intensity
Please give the numeric answer without any surrounding text.

• DAPASKPSVPPRNYF = 1550
• ATKSASPTLPTRRSR = 5480
• TKPTPPPKPSHLKPK = 1800
• NPNRRAPRRPLSTQH = 1470
• GRSRLFPHSPLGRSS = 212

Looking for the measured SPOT peptide array binding signal intensity of QQEQNTPPLPPKPKS , can you help?
3310

Can you look up the measured SPOT peptide array binding signal intensity of KDKSRPPRPPPKPLH for me?
1930
